Recorded GI50 by entry
tested on: ACHN; experiment: NCI tumour cell line growth inhibition, 48 h
Calls of active or inactive are those of the source. Rule as the data show it: active = GI50 up to about 1.1 µM and inactive = higher.

Guide cases for GI50, answers given:
[
  {
    "molecule": "Cc1nc2c(O)cc3c4c(n(Cc5ccccc5)c3c2nc1C)C(=O)CCC4",
    "GI50": "25.2 µM (inactive)"
  },
  {
    "molecule": "COc1cc(C(=O)N(C)N(C)C)cc(OC)c1OC",
    "GI50": "> 10 µM (inactive)"
  },
  {
    "molecule": "COc1c2c(c(O)c3c4c(c(C)cc13)C1OC3(C(OC)OC5CC(C)(O)C(OC6CC(C)(O)C(O)C(C)O6)C(C)O5)OC1C(OC)(O4)C31CO1)C(=O)C(O)CC2OC1CC(C)(O)C(OC(C)=O)C(C)O1 (stereo not given)",
    "GI50": "< 0.0112 µM (active)"
  },
  {
    "molecule": "CCCCCCCCCCCCCCCCCCNC(=S)N/C=C1\\C(=O)Nc2ccccc2C1=O",
    "GI50": "16.4 µM (inactive)"
  }
]

Consider now this further molecule.
Entry O=C(O)c1cc(NC2=C(Cl)C(=O)c3c(O)ccc(O)c3C2=O)ccc1O , system ACHN: what GI50 was measured? > 10 µM (inactive)

---

test system: MDA-N; test: NCI tumour cell line growth inhibition, 48 h
Calls of active or inactive are those of the source. No stated cut-off is given here; in the data, active = GI50 up to about 1.1 µM and inactive = higher.
observedProperty: GI50

Guide cases for GI50, answers given:
[
  {
    "compound": "C[C@]12CC[C@H]3[C@@H](CCC4=C[C@@H](N5CCCC5)CC[C@@]43C)[C@@H]1C/C(=C\\c1ccncc1)[C@@H]2O",
    "result": "11.4 µM (inactive)"
  },
  {
    "compound": "COc1ccccc1/C=C1\\CCC(CN(C)C)C1=O (stereo not given)",
    "result": "4.09 µM (inactive)"
  },
  {
    "compound": "c1cc(CNCCN2CCNCC2)ccn1",
    "result": "> 100 µM (inactive)"
  }
]

Entry COc1ccc(CCNCCCC2c3ccccc3-c3ccccc32)cc1OC , system MDA-N: what GI50 was measured? 16.7 µM (inactive)

Do the same for CCCCCCCCCCCCCCCCC(C(=O)O)C(O)(CC(=O)O)C(=O)O (stereo not given) please 47 µM (inactive)

---

test system: SK-MEL-28; experiment: NCI tumour cell line growth inhibition, 48 h
Activity calls are given as the source filed them. Cut-off read from the data, not from the text of the source: active = GI50 up to about 1.1 µM and inactive = higher.
Pick from 1 = active, 0 = inactive when you respond.

These recorded examples may help you get a feel for the data.
[
  {
    "molecule": "C[C@]12CC[C@H]3[C@@H](CCC4=C[C@@H](N5CCCC5)CC[C@@]43C)[C@@H]1C/C(=C\\c1ccncc1)[C@@H]2O",
    "assignedLabel": 0
  },
  {
    "molecule": "COc1ccc(NC(=O)CCc2cc(C(C)(C)C)[nH]n2)cc1",
    "assignedLabel": 0
  },
  {
    "molecule": "CCCCCCCCCCCCC(CCCCCCCCCCCC)OP(=O)(O)O",
    "assignedLabel": 0
  }
]

Each molecule tested received a call. Report the one for COc1ccc(OC)c2c3c(ccc12)C(c1ccccc1)OC3=O (stereo not given) . 0

Do the same for CNc1cccc(-c2cc(O)c3cc4c(cc3n2)OCO4)c1 please 1

Do the same for CC(=O)OC1OC(c2ccoc2)C[C@@]12C1CCC3O[C@]3(C)[C@]1(C)C[C@H](OC(C)=O)[C@H]2C (stereo not given in full) please 0

Do the same for S=C(N/N=C(\C(=N/NC(=S)N1CCCCC1)c1ccccn1)c1ccccn1)N1CCCCC1 please 0

Do the same for CCOC(=O)CC1(C(=O)OCC)c2[nH]c3ccccc3c2CCN1Cc1ccccc1 (stereo not given) please 0

Do the same for C=Cc1c(C)c(OC)cc2c1Oc1ccc(OC)c(C)c1CC2 please 0

Do the same for COc1cc2ccc3c4cc(OC)c(OC(C)C)cc4cnc3c2cc1OC please 0

Do the same for CCOC(=O)c1cc2c3c(c(C(C)=O)c(O)c2[nH]1)N(CC(C)CC)CC3 (stereo not given) please 0

Do the same for CC(C)[C@H](NC(=O)[C@@H](O)[C@H](N)Cc1ccccc1)C(=O)N[C@@H](Cc1ccccc1)C(=O)O please 0

Do the same for N#CC(c1ccccc1)N(CCCCCCN(C(=O)c1ccccc1)C(C#N)c1ccccc1)C(=O)c1ccccc1 (stereo not given) please 0

Do the same for CS/C(=N\Nc1cnc2ccccc2n1)NS(=O)(=O)c1cc(C)c(Cl)cc1Cl please 0

Do the same for O=S1(=O)OCCOS(=O)(=O)C1(Cl)Cl please 0

Do the same for c1cncc(-c2cc(-c3cc(-c4cccnc4)[nH]n3)n[nH]2)c1 please 0

Do the same for CC1(C)OCC(/C=C\C(O)CC2(C)OCCO2)CO1 (stereo not given) please 0

Do the same for C=C[C@@]1(C)CC(=O)[C@]2(O)[C@@]3(C)[C@@H](OC(C)=O)CCC(C)(C)[C@@H]3[C@H](OC(C)=O)[C@H](OC(C)=O)[C@@]2(C)O1 please 0

Do the same for CC1(C)Cc2c(c3ccccc3c3nc4c(nc23)c2c(c3ccccc34)OC(C)(C)C2)O1 please 0

Do the same for COc1ccc(-c2nnc(-c3nsc4ccccc34)o2)cc1 please 0

---

tested on: NCI-H522; assay: NCI tumour cell line growth inhibition, 48 h
Calls of active or inactive are those of the source. Rule as the data show it: active = GI50 up to about 1.1 µM and inactive = higher.
observedProperty: GI50

Guide cases for GI50, answers given:
[
  {
    "molecule": "CCCCCCC(/C=N/O)C(C)(O)CCC (stereo not drawn)",
    "result": "37.7 µM (inactive)"
  },
  {
    "molecule": "Cc1cn2c(/C=N/NC(=N)N)c(-c3cccc([N+](=O)[O-])c3)nc2s1",
    "result": "2.08 µM (inactive)"
  },
  {
    "molecule": "Brc1ccc2[nH]cc([C@H]3CN[C@@H](c4c[nH]c5ccc(Br)cc45)CN3)c2c1",
    "result": "1.79 µM (inactive)"
  },
  {
    "molecule": "CC1(C)N=c2c(ncn2-c2ccccc2)=C(C(N)=O)N1",
    "result": "> 100 µM (inactive)"
  },
  {
    "molecule": "CCO/C=C1\\N=C(c2ccccc2Br)OC1=O",
    "result": "> 100 µM (inactive)"
  }
]

If you can, please state the reported GI50 value of CCOC(=O)c1ccc(/N=C2/C(=S)N(c3ccc(C(=O)OCC)cc3)C(=N)N2/N=C/c2ccccc2)cc1 . 2.34 µM (inactive)

Do the same for CCSc1n/c(=C\c2ccco2)c2nncn12 please > 100 µM (inactive)

Do the same for C=Cc1c(C)c(OC)cc2c1Oc1ccc(OC)c(C)c1CC2 please 88.5 µM (inactive)

---

test system: CAKI-1; assay: NCI tumour cell line growth inhibition, 48 h
Activity calls are given as the source filed them. No stated cut-off is given here; in the data, active = GI50 up to about 1.1 µM and inactive = higher.
observedProperty: GI50

[
  {
    "molecule": "COc1cccc2c1C(=O)c1c(O)c3c(c(O)c1C2=O)C[C@@](O)(C(C)=O)C[C@@H]3OC1CC(N(Cc2ccccc2)Cc2ccccc2)C(O)C(C)O1 (some centres undefined)",
    "GI50": "6.03 µM (inactive)"
  },
  {
    "molecule": "CC(=O)OCC(OC(C)=O)C(OC(C)=O)C(/C=N\\Nc1nc2ccccc2c(=O)[nH]1)=N\\Nc1nc2ccccc2c(=O)[nH]1 (centres undefined)",
    "GI50": "> 100 µM (inactive)"
  },
  {
    "molecule": "COC(=O)C1C=CCC2CCCCC21N1CCCC1 (centres undefined)",
    "GI50": "> 100 µM (inactive)"
  }
]

Consider now this further molecule.
If you can, please state the reported GI50 value of OC1(c2ccc(Cl)cc2)C(N2CCCC2)c2ccccc2C2=NCCN21 (centres undefined) . 26.5 µM (inactive)

---

system: NCI-H23; experiment: NCI tumour cell line growth inhibition, 48 h
Active and inactive are the calls of the source. Rule as the data show it: active = GI50 up to about 1.1 µM and inactive = higher.
observedProperty: GI50

[
  {
    "compound": "CCN(CC)CC(=N)N(CC)c1ccccc1",
    "result": "> 100 µM (inactive)"
  },
  {
    "compound": "N#C/C(=C\\c1ccc2[nH]ccc2c1)C(=O)c1ccc(O)c(O)c1",
    "result": "> 100 µM (inactive)"
  },
  {
    "compound": "CCOC(=O)C(CC(C)C)NC(=O)CSc1nnc(COc2ccc(Cl)cc2)n1-c1ccccc1 (stereo not given)",
    "result": "16 µM (inactive)"
  },
  {
    "compound": "Cc1nc2c(O)cc3c4c(n(Cc5ccccc5)c3c2nc1C)C(=O)CCC4",
    "result": "51.2 µM (inactive)"
  }
]

Entry Cc1cc(N(CCC#N)CCC#N)ccc1/C=C1N=C(/C=C/c2ccccc2)OC(=O)N\1 , system NCI-H23: what GI50 was measured? > 100 µM (inactive)

The values you see were collected from ChEMBL document CHEMBL1201862.
